- System: UO-31 renal
- experiment description: NCI-60 one-dose screen, 48 h
- condition: 10 µM unless noted
This is part of a sample that, as a whole, favours compounds with a hit. Of some 83,000 tested, about 20% had one in any assay. Active and inactive are the calls of the source. How the source made its calls: active means growth percent below 10; inactive means the rest.
Classes used: active, inactive

INSERT INTO measurements (molecule, target_or_test_system, class_name) VALUES
  ('CC[N+](CC)(CCOCCOCC[N+](CC)(CC)Cc1ccc([N+](=O)[O-])cc1)Cc1ccc([N+](=O)[O-])cc1', 'UO-31 renal', 'inactive'),
  ('O=C1CC(=O)N(c2ccccc2)O1', 'UO-31 renal', 'inactive'),
  ('COc1ccc2c(c1)C(=O)/C(=C/c1ccc([N+](=O)[O-])s1)O2', 'UO-31 renal', 'active'),
  ('CC(NC(=O)C(C)Oc1ccc(Cl)cc1Cl)C(=O)O (centres undefined)', 'UO-31 renal', 'inactive'),
  ('CCOC(=O)/C=C(/C)Sc1cc(O)c2ccccc2c1O', 'UO-31 renal', 'active'),
  ('Nc1ncc(-c2cnn(C3CCNCC3)c2)cc1-c1nc2cc(Cl)ccc2o1', 'UO-31 renal', 'active'),
  ('S=C(c1ccccc1)N1CCN(c2cccc(Cl)c2)CC1', 'UO-31 renal', 'inactive'),
  ('Cc1nc2c(O)cccc2cc1CO', 'UO-31 renal', 'inactive'),
  ('CC1=C(C(=O)Nc2ccccc2)C(c2ccc3c(c2)OCCO3)NC(=O)N1 (centres undefined)', 'UO-31 renal', 'inactive');

---

- Test system: UO-31 renal
- experiment description: NCI-60 one-dose screen, 48 h
- condition: 10 µM unless noted
About 83,000 compounds went through this panel and 20% of them were active in at least one assay; those are over-represented in the sample as a whole. Active and inactive are the calls of the source. How the source made its calls: active means growth percent below 10; inactive means the rest.
Classes used: TRUE for active, FALSE for inactive

INSERT INTO assay_data (compound, class_name) VALUES
  ('[O-]/[N+](=C\C=C\c1ccccc1)c1ccccc1', 'FALSE'),
  ('O=C(Nc1nc(-c2ccccc2)cs1)c1cc(O)c(O)c(O)c1', 'FALSE'),
  ('CCn1c2c(c3ccccc31)SC1c3cccn3CCN1C2=S (stereo not drawn)', 'FALSE'),
  ('COc1ccc2nc(NC(=O)c3cc(-c4ccc(F)cc4)n4nc(-c5ccccc5)cc4n3)sc2c1', 'FALSE'),
  ('COc1ccc(-c2nnc(COc3ccc(NC(=O)Nc4cc(C(F)(F)F)cc(C(F)(F)F)c4)cc3F)o2)cc1', 'TRUE'),
  ('CCCCCCC/C(=N\N=C(N)N)c1ccc(O)cc1', 'FALSE'),
  ('Cc1nn(-c2ccccc2)c2c1oc(=O)c1cc(Cl)ccc12', 'FALSE'),
  ('NC(=O)NN=C(C1CC1)C1CC1', 'FALSE'),
  ('COc1ccc(-c2cc(C(=O)Nc3nc4cc(C)c(C)cc4s3)nc3cc(-c4ccccc4)nn23)cc1OC', 'FALSE'),
  ('COc1cc(/C=C/c2nnc(-c3cc(-c4ccccc4)n[nH]3)o2)cc(OC)c1OC', 'FALSE'),
  ('CCOC(=O)/C(=C/c1ccccc1)C(=O)c1ccccc1', 'FALSE'),
  ('O=C(/C(=C/c1cccc([N+](=O)[O-])c1)c1ccccc1)c1ccccc1', 'FALSE'),
  ('Clc1ccc([C@@H]2C[C@@H]3Cc4cc(Br)c5ccccc5c4N2O3)c(Cl)c1', 'FALSE'),
  ('COC(=O)[C@]1(C(C)C)N[C@H](c2cn(-c3ccccc3)nc2-c2ccccc2)[C@@H]2C(=O)N(c3ccc(Cl)cc3)C(=O)[C@@H]21', 'FALSE'),
  ('COc1ccc(Nc2ccnc(NCCCNc3ccnc4cc(Cl)ccc34)n2)cc1', 'TRUE'),
  ('CCOC(=O)C1C(=O)OC2CCCCC21 (stereo not drawn)', 'FALSE'),
  ('O=C(Nc1ccc(OCc2nnc(-c3ccccc3)o2)c(F)c1)Nc1ccc(Cl)c(C(F)(F)F)c1', 'TRUE'),
  ('O=c1[nH]c(=O)n(C2CC(O)C(CO)O2)cc1C(F)(F)F (stereo not drawn)', 'FALSE'),
  ('Cc1cc2c(cc1C)Nc1sc(NC(=O)CN3CCN(C)CC3)nc1C(=O)N2', 'FALSE'),
  ('O=C(/C=C/c1ccc(O)c(O)c1)N1CCN(c2ccc(Cl)cc2)CC1', 'FALSE'),
  ('Cc1nn(-c2ccccc2)c2ncc3c(c12)C(=O)N(Cc1ccccc1)C3=O', 'TRUE'),
  ('Clc1ccc(-n2cnc3c(Cl)ncnc32)cc1Cl', 'FALSE'),
  ('CN(C)c1cccc2c(S(=O)(=O)N[C@H]3CC[C@H]4[C@@H]5CCc6cc(O)ccc6[C@H]5CC[C@]34C)cccc12', 'FALSE'),
  ('CCC(CC)NCCCCCNc1cc(OC)cc2cccnc12', 'FALSE'),
  ('CCCCOc1ccc(C(C)(C)c2ccc(OCCCC)cc2)cc1', 'FALSE'),
  ('O=C(C(=O)N1CCCCC1)c1ccc(OC2OC(CO)C(O)C(O)C2O)cc1 (stereo not drawn)', 'FALSE'),
  ('CCOC(=O)c1cc(-c2cccnc2)nc2c(Cl)cc(Cl)cc12', 'FALSE'),
  ('O=C1/C(=C/c2ccc3cccc(Cl)c3n2)SC(=S)N1CCc1ccc(O)cc1', 'FALSE'),
  ('CCC[C@H](N[C@@H](C)C(=O)N1[C@H](C(=O)O)C[C@@H]2CCCC[C@@H]21)C(=O)OCC', 'FALSE'),
  ('CN(CCOc1ccc(CC2SC(=O)NC2=O)cc1)c1ccccn1 (stereo not drawn)', 'FALSE'),
  ('CN(CC(=O)N(Cc1ccc(C2CCCCC2)cc1)c1ccc(C(=O)O)cc1)S(=O)(=O)c1c(F)c(F)c(F)c(F)c1F', 'FALSE'),
  ('CC(=O)n1c2ccccc2c2ccccc21', 'FALSE'),
  ('COc1ccc(C(=O)/C=C/c2c(Cl)nc3c(c(C)nn3-c3ccccc3)c2-c2ccc(Br)cc2)cc1', 'FALSE');

---

Each entry below lists one item and its recorded growth value.
- System: A498 renal
- experiment description: NCI-60 one-dose screen, 48 h (100 = growth as untreated, 0 = no growth, -100 = all killed)
- condition: 10 µM unless noted
The panel holds about 83,000 compounds, 20% with a hit somewhere; the sample as a whole holds those more often.
parameter: growth (%)

INSERT INTO results (compound, parameter, numeric_result) VALUES
  ('S=C1SCN(Cc2ccccc2)CN1Cc1ccco1', 'growth', 99),
  ('ClC1=C(Cl)C(Cl)=C(Cl)C1=Cc1ccc(Cl)cc1', 'growth', 27.2),
  ('O=c1[nH]c(=O)n(C2CC(O)C(CO)O2)cc1C(F)(F)F (stereo unspecified)', 'growth', 42.3),
  ('Cc1cc(C)n2nc(SCC(=O)Nc3sc4c(c3C(N)=O)CCC4)nc2n1', 'growth', 95.7),
  ('CC(c1cc(Cl)ccc1O)c1cc(Cl)ccc1O', 'growth', 81.1),
  ('CN1C(=O)C(=Cc2cn(Cc3ccccc3)c3ccc(Br)cc23)C(=O)N(C)C1=O', 'growth', -91.3),
  ('O=C(Nc1ccc(Cl)cc1)Nc1ccc(Nc2nncc3ccccc23)cc1', 'growth', 24.5),
  ('Cc1scc2c1N(C(=O)CN1CCN(C)CC1)c1ccccc1NC2=O', 'growth', 122),
  ('COC(=O)c1ccc2c(c1)nc(-c1ccc(O)c(OC)c1)n2-c1cc(C(C)(C)C)[nH]n1', 'growth', 90.5),
  ('CCCCC1Nc2nc(SC)n(C)c(=O)c2CN(Cc2ccccc2)C1=O (stereo unspecified)', 'growth', 117),
  ('Cc1cc(CC(=O)O)n(C)c1C(=O)c1ccc(Cl)cc1', 'growth', 123),
  ('COc1cc(C2NC(c3ccc(Cl)cc3)C(C)/C(=N/NC(N)=S)C2C)cc(OC)c1OC (stereo unspecified)', 'growth', 129),
  ('O=C(Cn1ccnc1)NC(c1ccccc1)c1ccccc1', 'growth', 67.6),
  ('Cc1ccc(C=C2C(Cl)=C(Cl)C(Cl)=C2Cl)cc1', 'growth', -88.8),
  ('CCN(CC)CCNc1ccc(Cl)cc1Cl', 'growth', 103),
  ('COc1ccc(-c2csc(NC(=O)c3cc(O)c(O)c(O)c3)n2)cc1', 'growth', 112),
  ('Cc1cc([N+](=O)[O-])c(C)cc1C(=O)O', 'growth', 96.6),
  ('Cc1cc(NC(=O)c2ccc(N)cc2)ccc1N=Nc1ccc2c(O)c(N=Nc3ccc(Cl)c(S(=O)(=O)O)c3)c(S(=O)(=O)O)cc2c1', 'growth', 88.9),
  ('CSc1ncc2ncn(C3OC(CO)C(O)C3O)c2n1 (stereo unspecified)', 'growth', 99.6),
  ('CC1(C)OC(=O)C(=Cc2ccccc2Br)C(=O)O1', 'growth', 105),
  ('OC(Cc1cccnc1)c1ccccc1 (stereo unspecified)', 'growth', 86.5),
  ('C/C(=C\CCc1ccsc1)CC/C=C(\C)CCCN1CCN(CCO)CC1', 'growth', 39.2),
  ('CCOC(=O)/C(=C/c1ccccc1)C(=O)c1ccccc1', 'growth', 87.5),
  ('O=c1ccn(C2OC(CO)C(O)C2F)c(=O)[nH]1 (stereo unspecified)', 'growth', 110),
  ('CCOc1cc(-c2ccc[nH]2)[nH]c1/C=C1\N=C(C)C(C(=O)OC)=C1C', 'growth', -74),
  ('COc1cc2c(cc1OC)C1CCN3C(=O)CCC3N1CC2 (stereo unspecified)', 'growth', 104),
  ('Cc1cc(C)c(OC(=O)CSc2nc3ccccc3c(=O)n2CCc2ccccc2)cc1C', 'growth', 94.5),
  ('C[n+]1c2ccccc2c(Nc2ccc(N3CCCCC3)cc2)c2[nH]c3ccccc3c21', 'growth', -88.3),
  ('CCC(C)CC(C)C(=O)c1c(O)ccn(OC)c1=O (stereo unspecified)', 'growth', 98.7),
  ('CC(C)c1ccc(C(=O)Nc2sc3c(CN(C)C)c(O)ccc3c2C(N)=O)cc1', 'growth', 82.5),
  ('Oc1[nH]c2ccc(Cl)cc2c1/C=c1/ccc2c(c1)N=C(c1ccc(C(F)(F)F)cc1)N=2', 'growth', 95.4),
  ('COc1ccc(CCN2CCCN3C2=Nc2ccccc2S3(=O)=O)cc1', 'growth', 0.819),
  ('COC1=CC(c2ccc[nH]2)=N/C1=C\c1[nH]c(C)c(C(=O)CCC(=O)Oc2ccc3c(c2)CCC2C3CC[C@]3(C)C(=O)CC[C@@H]23)c1C (stereo partly specified)', 'growth', 102),
  ('COc1ccc2c(c1)[nH]c(=O)c1c3cc(OC)c(OC)cc3cn21', 'growth', 34.4),
  ('NC(N)=N/N=C(/c1ccccc1)c1ccc(Cl)cc1', 'growth', 56.5),
  ('CN(C)c1ccc(/C=C(\C#N)c2nc3ccccc3c(=O)[nH]2)cc1', 'growth', 90.7);
